Recorded IC90 by entry
# TARGET ENTITY: APOL1 (Homo sapiens)
# Sequence (O14791 whole entry S342G/I384M, form open): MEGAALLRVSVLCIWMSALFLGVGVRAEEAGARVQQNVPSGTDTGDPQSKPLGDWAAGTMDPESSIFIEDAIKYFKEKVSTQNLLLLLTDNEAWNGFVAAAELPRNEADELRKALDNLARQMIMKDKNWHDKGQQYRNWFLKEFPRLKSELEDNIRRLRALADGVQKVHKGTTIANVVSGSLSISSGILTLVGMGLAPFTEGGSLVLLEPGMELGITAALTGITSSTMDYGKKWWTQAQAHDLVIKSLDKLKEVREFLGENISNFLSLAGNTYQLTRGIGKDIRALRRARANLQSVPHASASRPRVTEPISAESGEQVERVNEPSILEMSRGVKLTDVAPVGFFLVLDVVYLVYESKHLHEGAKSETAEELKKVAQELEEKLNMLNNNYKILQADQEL
# ASSAY: Multi-Tox Assay (MultiTox-Fluor Multiplex Cytotoxicity Assay in tet-inducible APOL1 T-REx-HEK293 cells; Table 46 does not say which APOL1 variant G0/G1/G2)
# Type: cell-based
# STATED CONDITIONS: APOL1 variant not given

COMPOUND | TARGET ENTITY | IC90
COCC1(Cn2cc([C@@H]3C[C@]4(C[C@H](C)N3)OCC(F)(F)c3cc(Cl)sc34)nn2)CC1 [Compound 312] | APOL1 (Homo sapiens) | > 500 nM
CC1CC2(CC(c3cn(C)cn3)N1)OCCc1cc(Cl)sc12 (racemic) [Compound 22] | APOL1 (Homo sapiens) | < 50 nM
CCc1cc2c(s1)C(C)COC21C[C@@H](c2cn(C)nn2)N[C@@H](C)C1 (stereo in doubt) [Compound 11] | APOL1 (Homo sapiens) | < 50 nM
C[C@H]1C[C@@]2(C[C@@H](c3cn(CC(=O)N4CCCCC4)nn3)N1)OCC(F)(F)c1cc(Cl)sc12 [Compound 356] | APOL1 (Homo sapiens) | 50 to 500 nM
C[C@H]1C[C@@]2(C[C@@H](c3cn(CCS(=O)(=O)Nc4ccccc4)nn3)N1)OC[C@@H](O)c1cc(Cl)sc12 [Compound 241] | APOL1 (Homo sapiens) | 50 to 500 nM
CC1CC2(CC(C3CC3(F)F)N1)OCCc1cc(Cl)sc12 (single isomer, unassigned) [Compound 213] | APOL1 (Homo sapiens) | 50 to 500 nM
C[C@H]1C[C@@]2(C[C@@H](c3ccc4c(c3)NC(=O)CO4)N1)OCCc1cc(Cl)sc12 (racemic) [Compound 54] | APOL1 (Homo sapiens) | < 50 nM
C[C@H]1CC2(CC(c3cnn(C)c3)N1)OCC(O)c1cc(Cl)sc12 (single isomer, unassigned) [Compound 175] | APOL1 (Homo sapiens) | < 50 nM

Cited source: patent US12421249B2
